Measured Activity of individual entries
Tested on: Plasmodium berghei
assay_overview: Antimalarial activity against GFP-transfected Plasmodium berghei ANKA infected in NMRI mouse model assessed as reduction in parasitemia at 50 mg/kg, po dosed 4 times relative to control
Assay type: functional
Set-up: scale not given: the % may be the effect or the level left

Reference set, count: 5
Find Activity (Plasmodium berghei) for the entry CC(C)(C)NCc1cc(Cl)cc(Nc2nc3cc(F)c(F)cc3n2Cc2ccc(C(F)(F)F)cc2)c1O
<40%

// query: CCNCc1cc(Cl)cc(Nc2nc3cc(F)c(F)cc3n2Cc2ccc(C(F)(F)F)cc2)c1O
98%

// query: CCNCc1cc(Cl)cc(Nc2nc3cc(F)c(F)cc3[nH]2)c1O
<40%

// query: CCNCc1cc(Cl)cc(Nc2nc3ccccc3n2Cc2ccc(C(F)(F)F)cc2)c1O
<40%

// query: Cc1cc(CNC(C)(C)C)c(O)c(Nc2nc3ccccc3n2Cc2ccc(C(F)(F)F)cc2)c1
<40%

// next item, Activity requested
Find Activity (Plasmodium berghei) for the entry CCNCc1cc(Cl)cc(Nc2nc3ccccc3[nH]2)c1O
<40%

* * *

Measured Ratio IC50 of individual entries
assay_overview: Resistance index, ratio of IC50 for antimalarial activity against asexual blood stage multi drug-resistant Plasmodium falciparum K1 to IC50 for antimalarial activity against asexual blood stage drug-sensitive Plasmodium falciparum NF54
Format: functional
Simply state the number, no unit and no words.

Reference set, count: 6
Endpoint output: Ratio IC50 of CC(C)(C)NCc1cc(Cl)cc(Nc2nc3ccccc3[nH]2)c1O . Value?
2.33

// query: CC(C)(C)NCc1cc(Cl)cc(Nc2nc3ccccc3n2Cc2ccc(C(F)(F)F)cc2)c1O
0.21

// query: CCN(CC)Cc1cccc(Nc2nc3ccccc3n2Cc2ccc(F)cc2)c1O
0.5

// query: CCN(CC)Cc1cccc(Nc2nc3ccccc3n2Cc2ccc(C(F)(F)F)cc2)c1O
0.3

// query: Cc1cc(CNC(C)(C)C)c(O)c(Nc2nc3cc(F)c(F)cc3n2Cc2ccc(C(F)(F)F)cc2)c1
0.6

// query: Cc1cc(CNC(C)(C)C)c(O)c(Nc2nc3ccccc3[nH]2)c1
3.95

Further cases:
Endpoint output: Ratio IC50 of CCN(CC)Cc1cc(Nc2nc3ccccc3n2Cc2ccc(C#N)cc2)ccc1O . Value?
4.19

// query: CCNCc1cc(C)cc(Nc2nc3ccccc3n2Cc2ccc(C(F)(F)F)cc2)c1O
0.39

// query: Cc1cc(CNC(C)(C)C)c(O)c(Nc2nc3ccccc3n2Cc2ccc(C(F)(F)F)cc2)c1
0.58

// query: CCNCc1cc(C)cc(Nc2nc3cc(F)c(F)cc3n2Cc2ccc(C(F)(F)F)cc2)c1O
0.5

// query: CCN(CC)Cc1ccc(C)c(Nc2nc3ccccc3[nH]2)c1O
1.88

// query: CCNCc1cc(Cl)cc(Nc2nc3cc(F)c(F)cc3n2Cc2ccc(C(F)(F)F)cc2)c1O
0.42

// query: CCN(CC)Cc1cc(C)cc(Nc2nc3ccccc3n2Cc2ccc(F)cc2)c1O
0.38

// query: CCN(CC)Cc1c(Cl)ccc(Nc2nc3ccccc3n2Cc2ccc(C(F)(F)F)cc2)c1O
0.21

// query: CCN(CC)Cc1cc(C)cc(Nc2nc3ccccc3[nH]2)c1O
1.83

* * *

assay_overview: Volume of distribution at steady state in Balb/c mouse at 3 mg/kg, iv measured up to 24 hrs by LC-MS/MS analysis
Format: ADME, organism-based
study_conditions: in vivo, read-out: Vdss
Measured Vd of individual entries
Report as a plain number; the unit L/kg is understood.

Endpoint output: Vd of CCNCc1cc(Cl)cc(Nc2nc3cc(F)c(F)cc3n2Cc2ccc(C(F)(F)F)cc2)c1O . Value?
5.8

// next item, Vd requested
Endpoint output: Vd of CCNCc1cc(Cl)cc(Nc2nc3cc(F)c(F)cc3[nH]2)c1O . Value?
58

* * *

assay_overview: Half life in Balb/c mouse at 10 mg/kg, po measured up to 24 hrs by LC-MS/MS analysis
Type: ADME, organism-based
study_conditions: in vivo
metric: half-life (h)
Report as a plain number; the unit h is understood.

Endpoint output: half-life of CCNCc1cc(Cl)cc(Nc2nc3cc(F)c(F)cc3n2Cc2ccc(C(F)(F)F)cc2)c1O . Value?
8.3

* * *

assay_overview: Cmax in Balb/c mouse at 10 mg/kg, po measured up to 24 hrs by LC-MS/MS analysis
Format: ADME, organism-based
Parameters: route oral, dose 10 mg/kg, time <=24
study_conditions: in vivo
metric: Cmax (nM)
Report as a plain number; the unit nM is understood.

Endpoint output: Cmax of CCNCc1cc(Cl)cc(Nc2nc3cc(F)c(F)cc3n2Cc2ccc(C(F)(F)F)cc2)c1O . Value?
400

// next item, Cmax requested
Endpoint output: Cmax of CCNCc1cc(Cl)cc(Nc2nc3cc(F)c(F)cc3[nH]2)c1O . Value?
26

* * *

assay_overview: Tmax in Balb/c mouse at 10 mg/kg, po measured up to 24 hrs by LC-MS/MS analysis
Type: ADME, organism-based
study_conditions: in vivo
metric: Tmax (h)
Report as a plain number; the unit h is understood.

Endpoint output: Tmax of CCNCc1cc(Cl)cc(Nc2nc3cc(F)c(F)cc3[nH]2)c1O . Value?
0.7

// next item, Tmax requested
Endpoint output: Tmax of CCNCc1cc(Cl)cc(Nc2nc3cc(F)c(F)cc3n2Cc2ccc(C(F)(F)F)cc2)c1O . Value?
2.8

* * *

assay_overview: Metabolic stability in mouse liver microsomes assessed as compound remaining at 1 uM incubated for 30 mins by LC-MS/MS analysis
Assay type: ADME, Microsome
study_conditions: read-out: Stabilty
metric: remaining at 0.5 h, 1 µM (%)
Report as a plain number; the unit % is understood.

Reference set, count: 8
Endpoint output: remaining at 0.5 h, 1 µM of CCNCc1cc(Cl)cc(Nc2nc3ccccc3[nH]2)c1O . Value?
97

// query: CCNCc1cc(Cl)cc(Nc2nc3ccccc3n2Cc2ccc(C(F)(F)F)cc2)c1O
73

// query: CCNCc1cc(C)cc(Nc2nc3ccccc3n2Cc2ccc(C(F)(F)F)cc2)c1O
52

// query: CCNCc1cc(Cl)cc(Nc2nc3cc(F)c(F)cc3n2Cc2ccc(C(F)(F)F)cc2)c1O
86

// query: Cc1cc(CNC(C)(C)C)c(O)c(Nc2nc3ccccc3n2Cc2ccc(C(F)(F)F)cc2)c1
62

// query: CC(C)(C)NCc1cc(Cl)cc(Nc2nc3cc(F)c(F)cc3n2Cc2ccc(C(F)(F)F)cc2)c1O
94

// query: CCNCc1cc(Cl)cc(Nc2nc3cc(F)c(F)cc3[nH]2)c1O
98

// query: CC(C)(C)NCc1cc(Cl)cc(Nc2nc3ccccc3n2Cc2ccc(C(F)(F)F)cc2)c1O
36

// next item, remaining at 0.5 h, 1 µM requested
Endpoint output: remaining at 0.5 h, 1 µM of CCNCc1cc(C)cc(Nc2nc3cc(F)c(F)cc3n2Cc2ccc(C(F)(F)F)cc2)c1O . Value?
93

* * *

assay_overview: Selectivity index, ratio of IC50 for Cytotoxicity against CHO cells assessed as inhibition of cell viability by MTT assay to IC50 for antimalarial activity against asexual blood stage Plasmodium falciparum NF54 assessed as reduction in parasitemia incubated up to 72 hrs by [3H]hypoxanthine incorporation assay
Type: toxicity, cell-based
study_conditions: hamster, read-out: Selectivity Index
Measured selectivity ratio at 72 h of individual entries

Reference set, count: 2
Endpoint output: selectivity ratio at 72 h of CCNCc1cc(Cl)cc(Nc2nc3cc(F)c(F)cc3[nH]2)c1O . Value?
> 200

// query: CCN(CC)Cc1cccc(Nc2nc3ccccc3[nH]2)c1O
> 89

Further cases:
Endpoint output: selectivity ratio at 72 h of CCN(CC)Cc1cc(Cl)cc(Nc2nc3ccccc3n2Cc2ccc(C(F)(F)F)cc2)c1O . Value?
> 333

// query: CCN(CC)Cc1cc(Nc2nc3ccccc3n2Cc2ccc(F)cc2)ccc1O
17.6

// query: CCN(CC)Cc1ccc(C)c(Nc2nc3ccccc3n2Cc2ccc(C#N)cc2)c1O
> 57

// query: CCN(CC)Cc1cccc(Nc2nc3ccccc3n2Cc2ccc(F)cc2)c1O
> 136

// query: CCN(CC)Cc1cc(Nc2nc3ccccc3[nH]2)ccc1O
> 62

* * *

assay_overview: Kinetic solubility of the compound in pH 6.5 incubated for 24 hrs by HPLC-DAD analysis
Type: physicochemical
study_conditions: buffer, read-out: Kinetic_solubility
Please note: 1 (yes) applies when solubility kinetic at 24 h is 20 µM or greater, and 0 (no) applies otherwise.

Confirm if solubility kinetic at 24 h reported for the compound CCNCc1cc(Cl)cc(Nc2nc3ccccc3n2Cc2ccc(C(F)(F)F)cc2)c1O is 20 µM or above.
0 (no)

Further cases:
Confirm if solubility kinetic at 24 h reported for the compound CC(C)(C)NCc1cc(Cl)cc(Nc2nc3ccccc3n2Cc2ccc(C(F)(F)F)cc2)c1O is 20 µM or above.
0 (no)

// query: CC(C)(C)NCc1cc(Cl)cc(Nc2nc3cc(F)c(F)cc3n2Cc2ccc(C(F)(F)F)cc2)c1O
0 (no)

// query: CCN(CC)Cc1cc(C)cc(Nc2nc3ccccc3n2Cc2ccc(C(F)(F)F)cc2)c1O
0 (no)

// query: CCNCc1cc(Cl)cc(Nc2nc3cc(F)c(F)cc3[nH]2)c1O
0 (no)

// query: CCNCc1cc(Cl)cc(Nc2nc3cc(F)c(F)cc3n2Cc2ccc(C(F)(F)F)cc2)c1O
0 (no)

// query: CCNCc1cc(Cl)cc(Nc2nc3ccccc3[nH]2)c1O
1 (yes)

// query: CCNCc1cc(C)cc(Nc2nc3cc(F)c(F)cc3n2Cc2ccc(C(F)(F)F)cc2)c1O
0 (no)

// query: Cc1cc(CNC(C)(C)C)c(O)c(Nc2nc3cc(F)c(F)cc3n2Cc2ccc(C(F)(F)F)cc2)c1
0 (no)

// query: Cc1cc(CNC(C)(C)C)c(O)c(Nc2nc3ccccc3n2Cc2ccc(C(F)(F)F)cc2)c1
1 (yes)

// query: CCNCc1cc(C)cc(Nc2nc3ccccc3n2Cc2ccc(C(F)(F)F)cc2)c1O
1 (yes)
